# Tested Target: T1, GDF11 (UniProt O95390 299-407)
# T1 construct: also called BMP11
# T1 sequence (looked up): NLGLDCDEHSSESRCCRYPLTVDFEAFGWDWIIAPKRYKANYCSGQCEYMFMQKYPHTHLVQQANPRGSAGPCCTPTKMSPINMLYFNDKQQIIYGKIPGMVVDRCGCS
# Procedure Text: SPR (Biacore); ligand coupled, receptor flowed over (as reported in WO2006/012627)
Property Name: binding result

Soluble ActRIIB-Fc D80N (Table 11) (Fc fusion, UniProt Q13705 19-119, looked up, not shown: a dimerising Fc or GST) SGRGEAETRECIYYNANWELERTNQSGLERCEGEQDKRLHCYASWANSSGTIELVKKGCWLNDFNCYDRQECVATEENPQVYFCCCEGNFCNERFTHLPEA ... no binding
Soluble ActRIIB-Fc E37A (Table 11) (Fc fusion, UniProt Q13705 19-119, looked up, not shown: a dimerising Fc or GST) SGRGEAETRECIYYNANWALERTNQSGLERCEGEQDKRLHCYASWANSSGTIELVKKGCWLDDFNCYDRQECVATEENPQVYFCCCEGNFCNERFTHLPEA ... no binding
Soluble ActRIIB-Fc D80M (Table 11) (Fc fusion, UniProt Q13705 19-119, looked up, not shown: a dimerising Fc or GST) SGRGEAETRECIYYNANWELERTNQSGLERCEGEQDKRLHCYASWANSSGTIELVKKGCWLMDFNCYDRQECVATEENPQVYFCCCEGNFCNERFTHLPEA ... no binding
Soluble ActRIIB-Fc R56A (Table 11) (Fc fusion, UniProt Q13705 19-119, looked up, not shown: a dimerising Fc or GST) SGRGEAETRECIYYNANWELERTNQSGLERCEGEQDKALHCYASWANSSGTIELVKKGCWLDDFNCYDRQECVATEENPQVYFCCCEGNFCNERFTHLPEA ... no binding
